system: UACC-62 melanoma; test: NCI tumour cell line growth inhibition, 48 h
Catalogue of TGI readings, one per entry.

{"compound": "OCC(O)C(O)C(O)/C=N/Nc1nc2ccccc2nc1-c1ccccc1 (stereo not given)", "measurement": "> 100 µM"}

In: So what's the measured TGI for this one? NC1CC(=O)c2sccc21 (stereo not given)
Out: > 100 µM

In: Here is the next compound: "CS(=O)(=O)OCCN(CCOS(C)(=O)=O)c1ccc(C=O)cc1"
Out: 14.5 µM

* * *

tested on: NCI/ADR-RES ovarian; experiment: NCI tumour cell line growth inhibition, 48 h; in the data active means GI50 below about 0.43 µM; inactive means the rest
I would appreciate it if you answered using one of these outcomes: true for active, false for inactive

{"compoundStructure": "CC(C)Nc1ncc2cc(Oc3ccc(F)cc3F)c(=O)n(C)c2n1", "targetSystem": "NCI/ADR-RES ovarian", "qualitativeLabel": "false"}
{"compoundStructure": "Cc1[nH]nc2c1N=C(c1ccccc1Cl)c1cc([N+](=O)[O-])ccc1N2", "targetSystem": "NCI/ADR-RES ovarian", "qualitativeLabel": "false"}
{"compoundStructure": "C=C1C(=O)O[C@H]2[C@H]1CC/C(Cn1cc(-c3cc(C)c(C)cc3C)nn1)=C\\CC[C@@]1(C)O[C@@H]21", "targetSystem": "NCI/ADR-RES ovarian", "qualitativeLabel": "false"}

In: # outcome recorded in this test, key = "COc1ccc(N(/C=C/C(=O)C(F)(F)F)CC(=O)c2ccc(Cl)c(Cl)c2)cc1"
Out: false

In: Here is the next molecule: "N#Cc1ccc2c(c1)C(=O)c1c-2n(CCCN)c(=O)c2cc([N+](=O)[O-])ccc12"
Out: true

In: Here is the next molecule: "COc1ccc(N(C)c2c3ccccc3nc3[nH]c4ccccc4c23)cc1"
Out: false

* * *

system: IGROV1 ovarian; experiment: NCI tumour cell line growth inhibition, 48 h
Catalogue of TGI readings, one per entry.

{"compound": "O=C(OCCC12CC3CC(CC(C3)C1)C2)c1ccc(NCc2cc(O)ccc2O)cc1", "targetSystem": "IGROV1 ovarian", "measurement": "0.277 µM"}
{"compound": "C=C(C)[C@@H]1CCC2=C[C@H](CC(C)=CC3=CC(C)=C(O3)[C@@H]1OC)OC2=O", "targetSystem": "IGROV1 ovarian", "measurement": "> 100 µM"}
{"compound": "COc1cc(Nc2nc3ccc(C(F)(F)F)cc3nc2-c2ccccc2)cc(OC)c1OC", "targetSystem": "IGROV1 ovarian", "measurement": "> 100 µM"}
{"compound": "CC/C=C/c1cc2cc[nH]c2c2c1C(C)C[C@@H]2C (stereo partly specified)", "targetSystem": "IGROV1 ovarian", "measurement": "> 100 µM"}
{"compound": "O=C1NN(c2ccccc2)C(=O)/C1=C/c1ccc(Br)o1", "targetSystem": "IGROV1 ovarian", "measurement": "35 µM"}

In: Lab note: need TGI for "COc1ccc2cc(C(=O)NCCCNC(=O)c3ccc4cc(OC)ccc4c3)ccc2c1" on IGROV1 ovarian, anyone have it?
Out: > 100 µM

In: Here is the next compound: "C=CCN(c1cc(OC)c2[nH]cc(C)c2c1[N+](=O)[O-])S(C)(=O)=O"
Out: > 100 µM

In: Here is the next compound: CC(NC(=O)C(N)CC(=O)O)NC(=O)N(C)C(C)(C)C (stereo unspecified)
Out: > 100 µM

In: Here is the next compound: "Cc1nc(C(N)=S)sc1C(=O)C/C(=N/N)C(=O)Nc1ccc(Cl)cc1"
Out: > 100 µM

In: Here is the next compound: "S=c1nc(N2CCCCC2)ss1"
Out: 58.5 µM

In: Here is the next compound: "O=C(Nc1ccccc1)Nc1cccc(Oc2nnc(Cl)c3ccccc23)c1"
Out: 7.92 µM

* * *

test system: HCT-15 colon; assay: NCI tumour cell line growth inhibition, 48 h; in the data active = GI50 below about 0.43 µM; inactive = the rest
I would appreciate it if you answered using one of these outcomes: active, inactive

{"compound": "Cc1[nH]nc2c1N=C(c1ccccc1Cl)c1cc([N+](=O)[O-])ccc1N2", "qualitativeLabel": "active"}

In: # outcome recorded in this test, key = "CN1CCN(c2ccc(C(=O)Nc3cc(-c4cccc(NS(=O)(=O)c5ccccc5)c4)[nH]n3)cc2)CC1"
Out: inactive

In: Here is the next compound: "CNCCCNCCCN1C(=O)c2ccc3c4c(ccc(c24)C1=O)C(=O)N(CCCNCc1ccccc1OC)C3=O"
Out: inactive

In: Here is the next compound: "OCc1ccc(N(CCN2CCCC2)Cc2ccc(F)cc2)cc1Cl"
Out: inactive

In: Here is the next compound: "C1=Nc2ccccc2C=Nc2ccccc2C=Nc2ccccc2C=Nc2ccccc21.[Cl-].[Pt+2]"
Out: inactive

In: Here is the next compound: "O=C(COc1cccc(/C=C2\CSc3ccccc3C2=O)c1)c1ccc(Cl)cc1"
Out: inactive

In: Here is the next compound: "COc1ccccc1/C=C/C(=O)/C=C/c1ccccc1OC"
Out: inactive

In: Here is the next compound: "C=C1C(=O)O[C@H]2[C@H]1CC/C(Cn1cc(-c3cc(C)c(C)cc3C)nn1)=C\CC[C@@]1(C)O[C@@H]21"
Out: active

In: Here is the next compound: NC1CCC(N[C@@H]2C[C@H]2c2ccccc2)CC1 (some centres undefined)
Out: inactive

* * *

Catalogue of TGI readings, one per entry.
test system: DLD-1 colon; test: NCI tumour cell line growth inhibition, 48 h

{"compound": "Cc1ccc(Oc2ccc([N+](=O)[O-])cc2[N+](=O)[O-])c(C)c1", "measurement": "> 100 µM"}

In: So what's the measured TGI for this one? CC(C)CN(CC(C)C)C(=O)C1CCCC[C@@H]1C(=O)O (stereo partly specified)
Out: > 100 µM

In: Here is the next compound: O=C(NCc1ccncc1)C1COc2cc(-c3cc(=O)c4ccccc4o3)ccc2O1 (stereo unspecified)
Out: > 100 µM

In: Here is the next compound: "C1=Nc2ccccc2C=Nc2ccccc2C=Nc2ccccc2C=Nc2ccccc21.[Cl-].[Pt+2]"
Out: 98.4 µM

In: Here is the next compound: "O=C(c1ccc(Cl)cc1)c1ccc(OCCSCCCCCCCCCCSCCOc2ccc(C(=O)c3ccc(Cl)cc3)cc2)cc1"
Out: > 100 µM

In: Here is the next compound: "Oc1ccccc1-c1n[nH]c(=S)n1/N=C/c1ccc(-c2ccc(Br)cc2)o1"
Out: > 100 µM

In: Here is the next compound: "C=CCn1cc(C(=O)NC(=O)NCCCCCOC(=O)CCCCCCCCCCC(=O)OCCCCCNC(=O)NC(=O)c2cn(CC=C)c(=O)n(C)c2=O)c(=O)n(C)c1=O"
Out: > 100 µM

* * *

system: COLO 205 colon; assay: NCI tumour cell line growth inhibition, 48 h
Catalogue of TGI readings, one per entry.
Respond with the bare value in µM.

In the examples that follow, each entry is paired with its recorded TGI.
{"molecule": "CC(=O)OCC1=C(C)C[C@H]([C@@H](COC(C)=O)C2CCC3C4C[C@H]5O[C@]56CC=CC(=O)[C@]6(C)C4CC[C@@]32C)OC1=O (some centres undefined)", "measure": "TGI", "measurement": 1}
{"molecule": "Cc1nnc(-n2c(O)cc(=O)n(-c3ccccc3)c2=S)nc1/C=C/c1ccc(N(C)C)cc1", "measure": "TGI", "measurement": 21.2}
{"molecule": "O=c1cc(N=Nc2ccc(Cl)cc2)[nH]c(=O)[nH]1", "measure": "TGI", "measurement": 5.81}

Now take the following molecule into account.
In: So what's the measured TGI for this one? "CCOC(=O)c1cc(C(=O)c2cc(OC)c(OC)c(OC)c2)n2ccccc12"
Out: 2.57

* * *

tested on: OVCAR-8 ovarian; assay: NCI tumour cell line growth inhibition, 48 h
measure: TGI

In: So what's the measured TGI for this one? "O=c1c2ccccc2[nH]c2cc(O)cc(O)c12"
Out: > 100 µM

In: Here is the next molecule: CC(=O)OC1Oc2ccccc2-c2oc(=O)c(-c3cc4ccccc4oc3=O)cc21 (stereo not drawn)
Out: 36.7 µM

In: Here is the next molecule: "Clc1c(C(Cl)(Cl)Cl)nsc1N1CCCCC1"
Out: 71 µM

In: Here is the next molecule: "COc1ccc2c(c1)/C(=N/OC(C)=O)c1c-2c(=O)[nH]c2ccccc12"
Out: 31.8 µM

In: Here is the next molecule: "Cc1cccc(C)c1NC(=O)CCc1n[nH]c(=S)o1"
Out: > 100 µM

In: Here is the next molecule: "COc1ccc(-c2cc(-c3cc(F)c(Cl)cc3Cl)on2)cc1OC"
Out: > 100 µM

In: Here is the next molecule: CC1C(=O)O[C@H]2C1CC[C@@]1(C)[C@H](O)CC[C@@]13C[C@]2(O)OO3 (stereo partly drawn)
Out: > 100 µM

In: Here is the next molecule: "COc1ccc(/C=N/NC(=O)c2cnc3[nH]c(=O)n(C)c(=O)c3c2)cc1"
Out: > 100 µM
